Origin of the recorded values: paper PMC5538626

- experimental_system: LC3B (Homo sapiens, UniProt Q9GZQ8)
- Construct: modified Ub-leader (ubiquitin fusion leader) (N); made in house; host or cells: E. coli NEB T7 Express
- method: ITC titration of PLEKHM1-LIR peptides into LC3B
- Type: binding
- experimental_context: ITC, 25°C, pH 7.0
Ends that are not written are not given here.
Binary call on ΔG: 1.0 from -6 kcal/mol upward, 0.0 beneath that.

INSERT INTO results (monomer_sequence, assigned_label) VALUES
  ('GAMGPQQEDEWCILQYPD [PLEKHM1‐LIR VNV‐CIL]', 0.0),
  ('GAMGPQQEDEWVNVQYPD [PLEKHM1‐LIR WT]', 0.0),
  ('GAMGPQQEDEAVNVQYPD [PLEKHM1‐LIR W635A]', 1.0);

Moving on to the next sequence.
-- ask Would you say GAMGPQQEDEWGNVQYPD [PLEKHM1‐LIR V636G] shows ΔG at minimum -6 kcal/mol?
-- reply 1.0

* * *

// reported ΔS per item
- experimental_system: LC3B (Homo sapiens, UniProt Q9GZQ8)
- Construct: modified Ub-leader (ubiquitin fusion leader) (N); made in house; host or cells: E. coli NEB T7 Express
- method: ITC titration of PLEKHM1-LIR peptides into LC3B
- Format: binding
- experimental_context: ITC, 25°C, pH 7.0
Ends that are not written are not given here.

Worked set:
INSERT INTO results (monomer_sequence, experimental_endpoint, result) VALUES
  ('GAMGPQQEDEWCILQYPD [PLEKHM1‐LIR VNV‐CIL]', 'ΔS', '+3.30 cal mol^−1 K^−1'),
  ('GAMGPQQEDEAVNVQYPD [PLEKHM1‐LIR W635A]', 'ΔS', '+15.4 cal mol^−1 K^−1'),
  ('GAMGPQQEDEWVNVQYPD [PLEKHM1‐LIR WT]', 'ΔS', '+4.27 cal mol^−1 K^−1'),
  ('GAMGPQQEDEWVGVQYPD [PLEKHM1‐LIR N637G]', 'ΔS', '+15.0 cal mol^−1 K^−1');

Please examine the following record next.
-- ask Quick one: give measured ΔS for GAMGPQQEDEWGNVQYPD [PLEKHM1‐LIR V636G]
-- reply +12.4 cal mol^−1 K^−1

* * *

- experimental_system: GABARAP (Homo sapiens, UniProt O95166)
- Construct: modified Ub-leader (ubiquitin fusion leader) (N); made in house; host or cells: E. coli NEB T7 Express
- Sequence (O95166 whole entry, the tested form may be a part): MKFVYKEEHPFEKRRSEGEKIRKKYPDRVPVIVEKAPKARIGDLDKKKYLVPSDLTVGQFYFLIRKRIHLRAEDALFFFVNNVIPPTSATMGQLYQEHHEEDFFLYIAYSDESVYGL
- method: ITC titration of PLEKHM1-LIR peptides into GABARAP
- Type: binding
- experimental_context: ITC, 25°C, pH 7.0
Ends that are not written are not given here.
experimental_endpoint: KA

Worked set:
INSERT INTO results (monomer_sequence, result) VALUES
  ('GAMGPQQEDEWCILQYPD [PLEKHM1‐LIR VNV‐CIL]', '11.3 ± 0.38 ×10^6 M^−1'),
  ('GAMGPQQEDEWGNVQYPD [PLEKHM1‐LIR V636G]', '0.02 ± 0.00 ×10^6 M^−1'),
  ('GAMGPQQEDEWVNVQYPD [PLEKHM1‐LIR WT]', '1.8 ± 0.1 ×10^6 M^−1');

Please examine the following record next.
-- ask Give reported KA for GAMGPQQEDEWVGVQYPD [PLEKHM1‐LIR N637G] (GABARAP (Homo sapiens, UniProt O95166))
-- reply 0.13 ± 0.01 ×10^6 M^−1

* * *

- experimental_system: GABARAP (Homo sapiens)
- Construct: modified Ub-leader (ubiquitin fusion leader) (N); made in house; host or cells: E. coli NEB T7 Express
- method: ITC titration of PLEKHM1-LIR peptides into GABARAP
- Type: binding
- experimental_context: ITC, 25°C, VP-ITC, one-site model; 0.4 mM peptide into 0.020 mM protein; 50 mM Na2HPO4, 100 mM NaCl, pH 7.0
- Text: The genes for the truncated LC3A^2–121, LC3C^8–125, GABARAP^2–117 and GABARAP‐L1^2–117 proteins were cloned into pET30ΔSE vector between the BamHI and XhoI sites using previously established protocols 38. […] The chimeric constructs were expressed as a His‐tag fusion protein in E. coli BL21(DE3) cells. […]
Ends that are not written are not given here.
Binary call on ΔH: t from -7 kcal/mol upward, f beneath that.

INSERT INTO measurements (monomer_sequence, assigned_label) VALUES
  ('GAMGPQQEDEAVNVQYPD [PLEKHM1‐LIR W635A]', 't');

-- ask Would you say GAMGPQQEDEWVNVQYPD [PLEKHM1‐LIR WT] shows ΔH at minimum -7 kcal/mol?
-- reply f

-- ask Would you say GAMGPQQEDEWCILQYPD [PLEKHM1‐LIR VNV‐CIL] shows ΔH at minimum -7 kcal/mol?
-- reply f

-- ask Would you say GAMGPQQEDEWVGVQYPD [PLEKHM1‐LIR N637G] shows ΔH at minimum -7 kcal/mol?
-- reply t

-- ask Would you say GAMGPQQEDEWGNVQYPD [PLEKHM1‐LIR V636G] shows ΔH at minimum -7 kcal/mol?
-- reply f

* * *

- experimental_system: LC3-subfamily of proteins
- method: ITC, LC3-subfamily (range)
- Format: binding, human
Ends that are not written are not given here.
experimental_endpoint: Kd

-- ask Quick one: give measured Kd for GAMGPQQEDEWVNVQYPD [PLEKHM1‐LIR WT]
-- reply 3.5 to 6.3 µM

* * *

- experimental_system: GABARAP (Homo sapiens, UniProt O95166)
- Construct: modified Ub-leader (ubiquitin fusion leader) (N); made in house; host or cells: E. coli NEB T7 Express
- method: ITC titration of PLEKHM1-LIR peptides into GABARAP
- Assay type: binding
- experimental_context: ITC, 25°C, pH 7.0
- Description: The genes for the truncated LC3A^2–121, LC3C^8–125, GABARAP^2–117 and GABARAP‐L1^2–117 proteins were cloned into pET30ΔSE vector between the BamHI and XhoI sites using previously established protocols 38. […] The chimeric constructs were expressed as a His‐tag fusion protein in E. coli BL21(DE3) cells. […]
Ends that are not written are not given here.
experimental_endpoint: ΔG (kcal/mol)
Give just the numeric value; kcal/mol need not be written.

Worked set:
INSERT INTO results (monomer_sequence, readout_unit, readout_number) VALUES
  ('GAMGPQQEDEAVNVQYPD [PLEKHM1‐LIR W635A]', 'kcal/mol', -5.40),
  ('GAMGPQQEDEWVGVQYPD [PLEKHM1‐LIR N637G]', 'kcal/mol', -6.97),
  ('GAMGPQQEDEWGNVQYPD [PLEKHM1‐LIR V636G]', 'kcal/mol', -5.83),
  ('GAMGPQQEDEWCILQYPD [PLEKHM1‐LIR VNV‐CIL]', 'kcal/mol', -9.62);

Please examine the following record next.
-- ask Quick one: give measured ΔG for GAMGPQQEDEWVNVQYPD [PLEKHM1‐LIR WT]
-- reply -8.54

* * *

- experimental_system: GABARAP proteins
- method: ITC, GABARAP proteins (range)
- Assay type: binding, human
Ends that are not written are not given here.
experimental_endpoint: Kd

-- ask Quick one: give measured Kd for GAMGPQQEDEWVNVQYPD [PLEKHM1‐LIR WT]
-- reply 550 to 770 nM

* * *

// reported −T × ΔS per item
- experimental_system: GABARAP (Homo sapiens)
- Construct: modified Ub-leader (ubiquitin fusion leader) (N); made in house; host or cells: E. coli NEB T7 Express
- method: ITC titration of PLEKHM1-LIR peptides into GABARAP
- Type: binding
- experimental_context: ITC, 25°C, pH 7.0
Ends that are not written are not given here.
Give just the numeric value; kcal/mol need not be written.

Worked set:
INSERT INTO results (monomer_sequence, experimental_system, experimental_endpoint, readout_number) VALUES
  ('GAMGPQQEDEWCILQYPD [PLEKHM1‐LIR VNV‐CIL]', 'GABARAP (Homo sapiens)', '−T × ΔS', -0.44),
  ('GAMGPQQEDEWVGVQYPD [PLEKHM1‐LIR N637G]', 'GABARAP (Homo sapiens)', '−T × ΔS', -0.32);

Please examine the following record next.
-- ask Quick one: give measured −T × ΔS for GAMGPQQEDEAVNVQYPD [PLEKHM1‐LIR W635A]
-- reply -4.29

* * *

- experimental_system: LC3B (Homo sapiens, UniProt Q9GZQ8)
- Construct: modified Ub-leader (ubiquitin fusion leader) (N); made in house; host or cells: E. coli NEB T7 Express
- method: ITC titration of PLEKHM1-LIR peptides into LC3B
- Type: binding
- experimental_context: ITC, 25°C, VP-ITC, one-site model; 0.4 mM peptide into 0.020 mM protein; 50 mM Na2HPO4, 100 mM NaCl, pH 7.0
Ends that are not written are not given here.
experimental_endpoint: ΔH (kcal/mol)
Give just the numeric value; kcal/mol need not be written.

Worked set:
INSERT INTO measurements (monomer_sequence, readout_number) VALUES
  ('GAMGPQQEDEAVNVQYPD [PLEKHM1‐LIR W635A]', -0.8),
  ('GAMGPQQEDEWGNVQYPD [PLEKHM1‐LIR V636G]', -1.7),
  ('GAMGPQQEDEWVNVQYPD [PLEKHM1‐LIR WT]', -5.8),
  ('GAMGPQQEDEWVGVQYPD [PLEKHM1‐LIR N637G]', -1.4);

Please examine the following record next.
-- ask Quick one: give measured ΔH for GAMGPQQEDEWCILQYPD [PLEKHM1‐LIR VNV‐CIL]
-- reply -7.9
